Taken from PubChem BioAssay.

Assay: fission yeast growth modulation, primary screen, strain 972, OD600, 24 h, no modulator (AID 1090);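 note: basal condition with compound alone and no growth modifier present; test concentration not given here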
Condition Details: S. pombe 972 growth, higher = more signal, called active from +8 up or from −8 down
Outcome Measure: z-score
Lab note: record the figure alone, no unit after it.

Field: example entries. Status: answers known.
1. NC(=O)N1C(=O)C2C(C1=O)C1C=C(CCCO)C2C(c2ccc(CN3CCCC3)cc2)N1Cc1cccc(OC(F)(F)F)c1 (centres undefined); -2.67
2. C=CCOC(=O)[C@@H]1[C@H]2C(=O)O[C@H](c3ccccc3)[C@H](c3ccccc3)N2[C@H](c2ccc(OCCOC(=O)[C@H]3C[C@H]4C(=O)NCC(=O)N4[C@H]3c3ccc(O)cc3)cc2)[C@@]12C(=O)Nc1ccc(I)cc12; 0.761
3. CC(c1ccccc1)C(O)C1C=CC2C(=O)N(c3ccccc3)C(=O)C2N1Nc1ccc(C#N)cc1 (centres undefined); 1.16
4. CN(C)CCCCNC(=O)[C@H]1C[C@H]2C(=O)NCC(=O)N2[C@H]1c1cccc(OCCO)c1; 1.06
5. C=CCC(OC(C)=O)[C@@H]1[C@@H](N(Cc2cc3ccccc3o2)C(=O)Cc2ccc(OC)cc2)c2cc(OCCCO)ccc2N1C(=O)Cc1ccc2ccccc2c1 (some centres undefined); 0.232
6. COC(=O)[C@H](Cc1ccc(O)cc1)N1CC2=CCCC=C[C@@H]2[C@H]1[C@H](O)Cc1ccccc1; -2.3
7. O=C1c2ccccc2[C@@]2(Cc3ccccc3N(Cc3ccccc3)C2=O)[C@H](c2ccc(CO)cc2)N1Cc1ccccc1; -0.678
8. Cc1ccc(S(=O)(=O)N2[C@@H](c3ccccc3)C(C(=O)O)=CC[C@H]2c2ccc(C#N)cc2)cc1; 0.612
9. COC(=O)[C@@]1(Cc2ccccc2)[C@@H]2[C@@H](CC(=O)[C@H]2CC(=O)C(=O)N(C)C)CN1C(=O)c1ccccc1; 1.29
10. O=C1C2C=CC(C(O)c3cccs3)N(Nc3ccccc3)C2C(=O)N1c1ccccc1 (centres undefined); -0.175

Prompt line: Using known records, supply z-score for "CC(C)C[C@@H]1NC(=O)[C@H]2C[C@@H](C(=O)NCCCCCNC(=O)CS)[C@@H](c3ccc(O)cc3)N2C1=O"
Response line: -0.12

Prompt line: Supply measured z-score of "COCCOC(=O)N1C(=O)[C@@]2(c3cc(C#CCCO)ccc31)[C@H](C(=O)N1CCc3cc(OC)c(OC)cc3C1)[C@H]1C(=O)O[C@H](c3ccccc3)[C@H](c3ccccc3)N1[C@@H]2c1ccccc1OCCO" in your reply.
Response line: 1.65

Prompt line: State its z-score for this molecule: C=CCC(OC(C)=O)[C@@H]1[C@@H](N(Cc2cccc3ccccc23)C(=O)c2cccc3ccccc23)c2cc(OCCCO)ccc2N1C(=O)Cc1ccc2ccccc2c1 (some centres undefined)
Response line: 0.0827

Prompt line: Indicate the recorded z-score value for this molecule: "COCCOC(=O)N1C(=O)[C@@]2(c3cc(C#CCC(C(=O)OC)C(=O)OC)ccc31)[C@H](c1ccc(OCCO)cc1)N1[C@H](c3ccccc3)[C@H](c3ccccc3)OC(=O)[C@H]1[C@@H]2C(=O)N1CCCCCCC1"
Response line: 0.911

----------
Assay: COS7 lysate on small-molecule microarray, probe aHis, 635 nm (AID 1123);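 note: z-score combines 667nm fluorescence intensity with signal-to-noise per printed compound spot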
Condition Details: COS7 cell lysate, fluorescence, higher = more signal
Outcome Measure: composite z-score
Write no unit; give the number alone.

Completed entries (count: 10):
1. C=CCOC(=O)[C@H]1[C@@H]2C(=O)O[C@@H](c3ccccc3)[C@@H](c3ccccc3)N2[C@@H](c2ccc(OCCOC(=O)[C@@H]3C[C@@H]4C(=O)N[C@@H](CC(C)C)C(=O)N4[C@@H]3c3ccc(O)cc3)cc2)[C@]12C(=O)Nc1ccc(I)cc12; 2.52
2. COc1ccc(NN2C(C(O)c3ccc(OC)cc3)C=CC3C(=O)N(C4CCCCC4)C(=O)C32)cc1 (centres undefined); 1.1
3. CC(=O)n1cc(C(O)C2C=CC3C(=O)N(c4ccccc4)C(=O)C3N2Nc2ccccc2F)c2ccccc21 (centres undefined); 1.84
4. CC1CC/C=C\[C@H]2OC34C=CCN(c5ccc(Cl)cc5)C(=O)[C@H]3N(CCCO)C(=O)[C@]4(C)C2C(=O)O1 (some centres undefined); -0.42
5. CC(C)CNC(=O)[C@@]1(C)c2ccccc2C(=O)N(Cc2cc(F)cc(C(F)(F)F)c2)[C@H]1c1ccc(CO)cc1; 1.2
6. CN(C)C(=O)[C@]1(Cc2ccccc2CN=[N+]=[N-])N=C(c2ccc(OCCCO)cc2)O[C@@H]1c1ccccc1N=[N+]=[N-]; 2.68
7. CCCCNC(=O)c1ccc(C#C[Si](C)(C)C)c(OC(C)=O)c1; 0.353
8. Cc1c(-c2ccc(-c3ccc(Cl)c(Cl)c3)o2)nc(-c2ccccc2)c2c1CO[Si]2(C(C)C)C(C)C; 0.356
9. CC(C)C[C@@H]1NC(=O)C([C@@H](C)OCc2ccccc2)NC(=O)[C@@]23C(=O)N[C@@H](Cc4ccccc4)C2[C@H](C)[C@@]2(C)O[C@H]2C3/C=C/CC/C=C/CNC1=O (some centres undefined); 0.73
10. C=CCC(OC(C)=O)[C@@H]1[C@@H](N(Cc2ccc(-c3cccc(C(F)(F)F)c3)o2)C(=O)Cc2ccc(F)cc2)c2cc(OCCCO)ccc2N1C(=O)c1ccc2ccccc2c1 (some centres undefined); 0.0261

Consider the record given below.
Prompt line: Look up and state reported composite z-score for "CN1C(=O)[C@]2(CCS(=O)(=O)c3ccccc3)N=C(c3ccc(OCCCO)cc3)O[C@@H]2c2ccccc21"
Response line: 2.81
